Test: Apparent equilibrium constant for DNA binding (G-C)
Type: ADME
measured.quantity: K app (M⁻¹)

>>> measured_result("CN(C)CCNC(=O)c1ccc(NCCCN(C)CCCNc2ccc(C(=O)NCCN(C)C)c3nc4ccc([N+](=O)[O-])cc4c(O)c23)c2c(O)c3cc([N+](=O)[O-])ccc3nc12")
"2.3e+08"
>>> measured_result("CN(C)CCNC(=O)c1ccc(NCCCN(C)CCCNc2ccc(C(=O)NCCN(C)C)c3nc4ccc(O)cc4c(O)c23)c2c(O)c3cc(O)ccc3nc12")
"7.4e+07"
>>> measured_result("CN(C)CCNC(=O)c1ccc(NCCN(C)CCNc2ccc(C(=O)NCCN(C)C)c3nc4ccc(O)cc4c(O)c23)c2c(O)c3cc(O)ccc3nc12")
"1.4e+07"
